test system: NCI-H226; assay: NCI 60-cell line one-dose antiproliferative screen (SRB); format: cell-based; conditions: Homo sapiens, read-out: growth inhibition % (GI%)
The entries below come with measured inhibition at 10 µM values attached.

{"compound string": "Cc1ccc(C(=O)c2ccc(CC(=O)NN=C3C(=O)Nc4ccc(OC(F)(F)F)cc43)n2C)cc1", "value": "< 10%"}
{"compound string": "Cc1ccc(C(=O)c2ccc(CC(=O)NN=Cc3ccccc3O)n2C)cc1", "value": "< 10%"}

## Task Give inhibition at 10 µM for the following compound: `Cc1ccc(C(=O)c2ccc(CC(=O)NN=Cc3cc4ccccc4[nH]3)n2C)cc1`
## Result 15.3%

## Task Give inhibition at 10 µM for the following compound: `Cc1ccc(C(=O)c2ccc(CC(=O)NN3C(=O)c4ccccc4C3=O)n2C)cc1`
## Result < 10%

###

tested on: NCI-H23; experiment: NCI 60-cell line one-dose antiproliferative screen (SRB); assay type: cell-based; settings: Homo sapiens, read-out: growth inhibition % (GI%)
observation type: inhibition at 10 µM (%)
Express your answer in %, writing the number without its unit.

# count of solved cases: 3
{"compound string": "Cc1ccc(C(=O)c2ccc(CC(=O)NN=Cc3cccc(O)c3O)n2C)cc1", "experimental system": "NCI-H23", "inhibition at 10 µM / %": 54.6}
{"compound string": "Cc1ccc(C(=O)c2ccc(CC(=O)NN=Cc3ccc(O)cc3O)n2C)cc1", "experimental system": "NCI-H23", "inhibition at 10 µM / %": 57.6}
{"compound string": "Cc1ccc(C(=O)c2ccc(CC(=O)NN=Cc3cc4ccccc4[nH]3)n2C)cc1", "experimental system": "NCI-H23", "inhibition at 10 µM / %": 15.4}

## Task Give inhibition at 10 µM for the following compound: `Cc1ccc(C(=O)c2ccc(CC(=O)NN3C(=O)CCC3=O)n2C)cc1`
## Result 24.8

## Task Give inhibition at 10 µM for the following compound: `Cc1ccc(C(=O)c2ccc(CC(=O)NN=Cc3ccccc3O)n2C)cc1`
## Result 17.1

###

The entries below come with measured inhibition at 10 µM values attached.
tested on: PC-3; assay: NCI 60-cell line one-dose antiproliferative screen (SRB); type: cell-based; details: Homo sapiens, read-out: growth inhibition % (GI%)
Express your answer in %, writing the number without its unit.

# count of solved cases: 2
{"compound string": "Cc1ccc(C(=O)c2ccc(CC(=O)NN=Cc3ccc(O)cc3O)n2C)cc1", "observation type": "inhibition at 10 µM", "value": 38.9}
{"compound string": "Cc1ccc(C(=O)c2ccc(CC(=O)NN=Cc3cc4ccccc4[nH]3)n2C)cc1", "observation type": "inhibition at 10 µM", "value": 10.9}

Attention now turns to another entry.
## Task Provide the reported inhibition at 10 µM (system: PC-3) for `Cc1ccc(C(=O)c2ccc(CC(=O)NNC(=O)Nc3ccc(Cl)c(C(F)(F)F)c3)n2C)cc1`
## Result 22.4

###

The entries below come with measured inhibition at 10 µM values attached.
tested on: MOLT-4; experiment: NCI 60-cell line one-dose antiproliferative screen (SRB); type: cell-based; details: Homo sapiens, read-out: growth inhibition % (GI%)
Express your answer in %, writing the number without its unit.

{"compound string": "Cc1ccc(C(=O)c2ccc(CC(=O)NN=Cc3ccc(O)cc3O)n2C)cc1", "inhibition at 10 µM / %": 87}
{"compound string": "Cc1ccc(C(=O)c2ccc(CC(=O)NN3C(=O)c4ccccc4C3=O)n2C)cc1", "inhibition at 10 µM / %": 10.6}
{"compound string": "Cc1ccc(C(=O)c2ccc(CC(=O)NN=Cc3c[nH]c4ccccc34)n2C)cc1", "inhibition at 10 µM / %": 16.5}
{"compound string": "Cc1ccc(C(=O)c2ccc(CC(=O)NN=Cc3cccc(O)c3O)n2C)cc1", "inhibition at 10 µM / %": 88.8}
{"compound string": "Cc1ccc(C(=O)c2ccc(CC(=O)NN=Cc3ccccc3O)n2C)cc1", "inhibition at 10 µM / %": 26}

## Task Give inhibition at 10 µM for the following compound: `Cc1ccc(C(=O)c2ccc(CC(=O)NNC(=O)Nc3ccc(Cl)c(C(F)(F)F)c3)n2C)cc1`
## Result 19.2

## Task Give inhibition at 10 µM for the following compound: `Cc1ccc(C(=O)c2ccc(CC(=O)NN3C(=O)C=CC3=O)n2C)cc1`
## Result 14
